IC50 reference
Molecular target: UniProt:Q9NZJ5
Sequence (Q9NZJ5 whole entry): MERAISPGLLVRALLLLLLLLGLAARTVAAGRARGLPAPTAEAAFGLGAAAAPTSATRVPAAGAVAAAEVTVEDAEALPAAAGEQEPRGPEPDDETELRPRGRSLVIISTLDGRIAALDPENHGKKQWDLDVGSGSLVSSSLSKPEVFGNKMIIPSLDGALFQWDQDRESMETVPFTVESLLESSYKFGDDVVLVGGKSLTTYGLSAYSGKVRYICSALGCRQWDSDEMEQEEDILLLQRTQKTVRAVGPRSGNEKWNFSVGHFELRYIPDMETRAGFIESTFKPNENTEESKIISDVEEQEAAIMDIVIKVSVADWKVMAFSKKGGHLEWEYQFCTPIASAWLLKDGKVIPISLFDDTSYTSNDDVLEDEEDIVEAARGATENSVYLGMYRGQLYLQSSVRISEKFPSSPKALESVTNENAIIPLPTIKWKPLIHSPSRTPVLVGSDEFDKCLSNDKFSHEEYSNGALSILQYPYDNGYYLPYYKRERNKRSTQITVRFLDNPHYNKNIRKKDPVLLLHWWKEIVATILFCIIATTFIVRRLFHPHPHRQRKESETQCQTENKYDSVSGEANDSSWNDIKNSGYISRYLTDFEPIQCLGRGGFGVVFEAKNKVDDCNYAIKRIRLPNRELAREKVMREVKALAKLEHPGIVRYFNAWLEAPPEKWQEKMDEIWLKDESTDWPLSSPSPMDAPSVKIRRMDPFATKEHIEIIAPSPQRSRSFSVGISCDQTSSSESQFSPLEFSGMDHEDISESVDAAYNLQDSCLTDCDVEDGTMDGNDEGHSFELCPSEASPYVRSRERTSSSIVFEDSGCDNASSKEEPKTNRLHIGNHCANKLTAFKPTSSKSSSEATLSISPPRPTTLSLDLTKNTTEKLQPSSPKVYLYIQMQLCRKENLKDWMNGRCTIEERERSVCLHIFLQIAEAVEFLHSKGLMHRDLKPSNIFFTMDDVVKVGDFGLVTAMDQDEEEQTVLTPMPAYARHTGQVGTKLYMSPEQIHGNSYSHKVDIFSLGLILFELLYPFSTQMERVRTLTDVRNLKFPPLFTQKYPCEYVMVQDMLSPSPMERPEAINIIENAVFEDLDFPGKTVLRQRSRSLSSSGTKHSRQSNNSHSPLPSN
Assay: Biochemical Assay for PERK
Experimental: Activity of PERK kinase was determined spectroscopically using a coupled pyruvate kinase/lactate dehydrogenase assay that continuously monitors the ATP hydrolysis-dependent oxidation of NADH (e.g., Schindler et al. Science (2000) 289: 1938-1942). […] Inhibition of PERK was measured by adding serial diluted test compound (final assay concentration of 1% DMSO). A decrease in absorption at 340 nm was monitored continuously for 6 hours at 30° C. on a multi-mode microplate reader (BioTek). […]

> print(dat)
                           structure.smiles  endpoint.value
1  Nc1nccc2occ(-c3cccc(NS(=O)(=O)c4cc(Cl)cc(CO)c4Cl)c3F)c12        < 100 nM

Here is the next item to consider.
Qu. So what's the measured IC50 for this one? CN1CCC(n2cc(-c3cccc(NS(=O)(=O)c4cc(Cl)cc(CO)c4Cl)c3F)c3c(N)ncnc32)CC1
Ans. < 100 nM

* * *

molecular target: eIF-2-alpha kinase GCN2 (Homo sapiens)
Sequence (Q9P2K8 whole entry): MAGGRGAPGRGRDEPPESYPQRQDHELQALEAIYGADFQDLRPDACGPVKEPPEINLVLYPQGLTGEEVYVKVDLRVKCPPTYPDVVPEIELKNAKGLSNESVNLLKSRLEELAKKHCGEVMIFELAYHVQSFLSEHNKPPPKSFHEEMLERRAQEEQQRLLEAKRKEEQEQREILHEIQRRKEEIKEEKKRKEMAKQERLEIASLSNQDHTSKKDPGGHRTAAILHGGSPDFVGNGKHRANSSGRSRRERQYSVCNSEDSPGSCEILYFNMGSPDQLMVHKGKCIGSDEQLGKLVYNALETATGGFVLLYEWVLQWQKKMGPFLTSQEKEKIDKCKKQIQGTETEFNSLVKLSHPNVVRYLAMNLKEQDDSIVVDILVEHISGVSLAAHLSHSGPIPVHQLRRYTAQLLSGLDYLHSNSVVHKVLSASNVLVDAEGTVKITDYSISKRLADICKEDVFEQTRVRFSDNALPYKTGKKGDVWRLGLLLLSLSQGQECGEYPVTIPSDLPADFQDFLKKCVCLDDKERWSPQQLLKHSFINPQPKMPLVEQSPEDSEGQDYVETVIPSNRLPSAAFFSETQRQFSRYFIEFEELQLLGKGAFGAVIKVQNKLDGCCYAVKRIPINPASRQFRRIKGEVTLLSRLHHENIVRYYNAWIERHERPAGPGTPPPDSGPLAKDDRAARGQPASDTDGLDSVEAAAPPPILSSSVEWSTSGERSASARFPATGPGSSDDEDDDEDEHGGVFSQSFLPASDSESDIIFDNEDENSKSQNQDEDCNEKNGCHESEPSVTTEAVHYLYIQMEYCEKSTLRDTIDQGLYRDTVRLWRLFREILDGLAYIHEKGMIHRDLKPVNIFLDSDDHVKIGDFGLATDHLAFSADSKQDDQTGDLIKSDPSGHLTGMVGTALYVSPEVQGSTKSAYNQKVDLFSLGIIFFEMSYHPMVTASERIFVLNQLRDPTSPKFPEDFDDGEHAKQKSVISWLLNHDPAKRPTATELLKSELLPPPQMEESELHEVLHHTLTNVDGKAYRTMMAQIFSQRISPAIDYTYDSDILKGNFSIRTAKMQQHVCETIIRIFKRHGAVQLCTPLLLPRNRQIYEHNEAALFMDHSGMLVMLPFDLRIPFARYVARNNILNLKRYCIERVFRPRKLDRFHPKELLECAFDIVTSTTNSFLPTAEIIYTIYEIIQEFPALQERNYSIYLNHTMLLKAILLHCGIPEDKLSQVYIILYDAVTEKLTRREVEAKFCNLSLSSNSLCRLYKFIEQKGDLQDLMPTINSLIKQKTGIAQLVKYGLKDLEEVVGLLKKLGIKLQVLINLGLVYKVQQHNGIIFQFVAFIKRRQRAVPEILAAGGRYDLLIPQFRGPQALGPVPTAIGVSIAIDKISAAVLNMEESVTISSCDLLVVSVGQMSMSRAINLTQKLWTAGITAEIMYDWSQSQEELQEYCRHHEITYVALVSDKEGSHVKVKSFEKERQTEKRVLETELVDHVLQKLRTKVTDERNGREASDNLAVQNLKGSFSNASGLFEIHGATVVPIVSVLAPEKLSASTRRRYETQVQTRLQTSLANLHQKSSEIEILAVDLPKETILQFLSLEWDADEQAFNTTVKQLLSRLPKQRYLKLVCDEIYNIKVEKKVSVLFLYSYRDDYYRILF
observation-type: IC50

Qu. Under eIF-2-alpha kinase GCN2 (Homo sapiens): IC50 value of CN1CCC(n2cc(-c3cccc(NS(=O)(=O)c4cc(Cl)cc(CO)c4Cl)c3F)c3c(N)ncnc32)CC1 ?
Ans. < 100 nM

All values here come from BindingDB's records for patent US20230382915.
